target: T1, ΔhASIC1a-nanodiscs (Homo sapiens, UniProt P78348); test: Binding affinities of scFv antibodies to ΔhASIC1a-nanodiscs, Octet system; conditions: scFv format; Conc. 500 nM; Octet system
T1 construct: A truncated ASIC1a (amino acids 13-464; ΔhASIC1a) was overexpressed and purified; made in house; host or cells: HEK293F (BacMam baculovirus)
T1 sequence (P78348 13-464, stated change not applied): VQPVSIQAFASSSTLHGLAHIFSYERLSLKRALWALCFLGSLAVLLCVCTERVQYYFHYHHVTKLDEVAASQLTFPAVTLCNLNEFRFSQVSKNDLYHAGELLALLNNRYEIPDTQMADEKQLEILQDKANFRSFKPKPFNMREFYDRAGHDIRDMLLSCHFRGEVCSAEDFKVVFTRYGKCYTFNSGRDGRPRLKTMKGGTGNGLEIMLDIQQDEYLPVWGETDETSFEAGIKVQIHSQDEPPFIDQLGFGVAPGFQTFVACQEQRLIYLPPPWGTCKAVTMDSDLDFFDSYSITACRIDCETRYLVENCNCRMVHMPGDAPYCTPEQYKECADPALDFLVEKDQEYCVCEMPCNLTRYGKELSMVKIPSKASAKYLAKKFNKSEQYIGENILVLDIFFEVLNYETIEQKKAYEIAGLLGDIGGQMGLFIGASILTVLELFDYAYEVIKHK
T1 sequence (P02647 68-267 partner limits assumed): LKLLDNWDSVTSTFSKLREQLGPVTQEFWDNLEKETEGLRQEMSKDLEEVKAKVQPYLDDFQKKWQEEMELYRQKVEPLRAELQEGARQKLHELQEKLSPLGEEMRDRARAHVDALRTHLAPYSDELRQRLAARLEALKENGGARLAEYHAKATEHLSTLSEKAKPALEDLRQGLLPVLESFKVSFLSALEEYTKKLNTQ
Readout Label: Response
Give bare numbers.

Param item = ASC03: anti-ASIC1a scFv antibody, VH SEQ ID NO: 22 and VL SEQ ID NO: 27 (antibody, V domains shown, scFv linker; Amino acid sequence of ASC03 VH; Amino acid sequence of ASC03 VL) VH: QVQLVESGAEVKKPGSSVKVSCKASGGNFRKYSISWVRQAPGQGLEWMGWISAYNGNTNYAQKLQGRVTMTTDTSTSTAYMELRSLRSDDTAVYYCARDFDPYYDAFDIWGQGTTVTVSS VL: QSALTQPASVSGSPGQSITISCTGTSSDVGAYNYVSWYQQHPGKAPKLMIYDVSNRLSGVSNRFSGSKSGNRASLTISGLQAEDEADYYCSSYRSGNSLAFGGGTKLTVLG ; retrieve measured Response.
0.2693

Data provenance is patent US12692310B2.
